Just for reference, paper PMC3783652 is where these values come from.

Target: CXCL12_(2), constitutively dimeric CXCL12 variant (locked dimer) (UniProt P48061)
Assay: NMR titration
experimental readout: Kd (µM)
Please give a number only; it is taken to be in µM.

binder	Kd / µM
Ac-SDNYTEE-NH2 [9SDNYTEE15, unsulfated Tyr12 peptide of CXCR4]	332
ISIYTSD (HELM PEPTIDE1{[ac].I.S.I.[O=C([C@H](Cc1ccc(OS(=O)(=O)O)cc1)N[*:1])[*:2]].T.S.D.[am]}$$$$V2.0; SMILES CC[C@H](C)[C@H](NC(C)=O)C(=O)N[C@@H](CO)C(=O)N[C@H](C(=O)N[C@@H](Cc1ccc(OS(=O)(=O)O)cc1)C(=O)N[C@H](C(=O)N[C@@H](CO)C(=O)N[C@@H](CC(=O)O)C(N)=O)[C@@H](C)O)[C@@H](C)CC) [4ISIsYTSD10, sTyr7 sulfopeptide of CXCR4]	386
Ac-SGDYDSM-NH2 [18SGDYDSM24, unsulfated Tyr21 peptide of CXCR4]	831
Ac-ISIYTSD-NH2 [4ISIYTSD10, unsulfated Tyr7 peptide of CXCR4]	418

--- query ---
Input line: Which Kd reading was recorded for the binder SGDYDSM (HELM PEPTIDE1{[ac].S.G.D.[O=C([C@H](Cc1ccc(OS(=O)(=O)O)cc1)N[*:1])[*:2]].D.S.M.[am]}$$$$V2.0; SMILES CSCC[C@H](NC(=O)[C@H](CO)NC(=O)[C@H](CC(=O)O)NC(=O)[C@H](Cc1ccc(OS(=O)(=O)O)cc1)NC(=O)[C@H](CC(=O)O)NC(=O)CNC(=O)[C@H](CO)NC(C)=O)C(N)=O) [18SGDsYDSM24, sTyr21 sulfopeptide of CXCR4] ?
Output line: 211
